test system: Pichia kudriavzevii; experiment: Antifungal activity against Candida krusei ATCC 20579; assay type: functional
Measured MIC values are reported for all entries that follow.
Could you give the number and then its unit, please?

Previously resolved entries follow.
Molecule Smiles	Result
CCCCCCCCCCCCC[C@@H]1CC(=O)N[C@H]([C@@H](C)O)C(=O)N[C@H](C)C(=O)N[C@@H](Cc2ccc(O)cc2)C(=O)N[C@@H](C(C)C)C(=O)N2C[C@H](O)C[C@H]2C(=O)N[C@H]([C@@H](C)O)C(=O)N[C@@H]([C@@H](C)O)C(=O)N2CC[C@H](O)[C@H]2C(=O)N[C@@H]([C@H](O)CC(N)=O)C(=O)NCC(=O)N[C@H]([C@@H](C)O)C(=O)N[C@@H](CCCN(CCCN)C(=O)[C@H](CCCN)N(CCN)CCN)C(=O)O1	0.31 mg/L
CCCCCCCCCCCCC[C@@H]1CC(=O)N[C@H]([C@@H](C)O)C(=O)N[C@H](C)C(=O)N[C@@H](Cc2ccc(O)cc2)C(=O)N[C@@H](C(C)C)C(=O)N2C[C@H](O)C[C@H]2C(=O)N[C@H]([C@@H](C)O)C(=O)N[C@@H]([C@@H](C)O)C(=O)N2CC[C@H](O)[C@H]2C(=O)N[C@@H]([C@H](O)CC(N)=O)C(=O)NCC(=O)N[C@H]([C@@H](C)O)C(=O)N[C@@H](CCCN(CCCN)C(=O)[C@@H](CCCN)N(CCN)CCN)C(=O)O1	0.28 mg/L
CCCCCCCCCCCCC[C@@H]1CC(=O)N[C@@H]([C@@H](C)O)C(=O)N[C@H](C)C(=O)N[C@@H](Cc2ccc(O)cc2)C(=O)N[C@@H](C(C)C)C(=O)N2C[C@H](O)C[C@H]2C(=O)N[C@@H]([C@@H](C)O)C(=O)N[C@@H]([C@@H](C)O)C(=O)N2CC[C@H](O)[C@H]2C(=O)N[C@@H]([C@H](O)CC(N)=O)C(=O)NCC(=O)N[C@@H]([C@@H](C)O)C(=O)N[C@@H](CCCN(CCN)C(=O)[C@H](CCCN)N(CCN)CCN)C(=O)O1	0.28 mg/L

For the next question, use this compound.
Input line: Fill blank: measured MIC of the compound `CCCCCCCCCCCCC[C@@H]1CC(=O)N[C@@H]([C@@H](C)O)C(=O)N[C@H](C)C(=O)N[C@@H](Cc2ccc(O)cc2)C(=O)N[C@@H](C(C)C)C(=O)N2C[C@H](O)C[C@H]2C(=O)N[C@@H]([C@@H](C)O)C(=O)N[C@@H]([C@@H](C)O)C(=O)N2CC[C@H](O)[C@H]2C(=O)N[C@@H]([C@H](O)CC(N)=O)C(=O)NCC(=O)N[C@@H]([C@@H](C)O)C(=O)N[C@@H](CCCNC(=O)[C@@H](CCCN)N(CCN)CCN)C(=O)O1` is ____.
Output line: 0.54 mg/L

====

Each record here notes measured MIC.
test system: Candida albicans; experiment: Antifungal activity against Candida albicans KB fluconazole resistant strain.; assay type: functional
Express the result in µg/mL but write the number alone.

Molecule Smiles	Readout Kind	Numeric Readout
CCCCCCCCCCCCC[C@@H]1CC(=O)N[C@@H]([C@@H](C)O)C(=O)N[C@H](C)C(=O)N[C@@H](Cc2ccc(O)cc2)C(=O)N[C@@H](C(C)C)C(=O)N2C[C@H](O)C[C@H]2C(=O)N[C@@H]([C@@H](C)O)C(=O)N[C@@H]([C@@H](C)O)C(=O)N2CC[C@H](O)[C@H]2C(=O)N[C@@H]([C@H](O)CC(N)=O)C(=O)NCC(=O)N[C@@H]([C@@H](C)O)C(=O)N[C@@H](CCCN(CCN)C(=O)[C@H](CCCN)N(CCN)CCN)C(=O)O1	MIC	0.35
CCCCCCCCCCCCC[C@@H]1CC(=O)N[C@H]([C@@H](C)O)C(=O)N[C@H](C)C(=O)N[C@@H](Cc2ccc(O)cc2)C(=O)N[C@@H](C(C)C)C(=O)N2C[C@H](O)C[C@H]2C(=O)N[C@H]([C@@H](C)O)C(=O)N[C@@H]([C@@H](C)O)C(=O)N2CC[C@H](O)[C@H]2C(=O)N[C@@H]([C@H](O)CC(N)=O)C(=O)NCC(=O)N[C@H]([C@@H](C)O)C(=O)N[C@@H](CCCN(CCCN)C(=O)[C@H](CCCN)N(CCN)CCN)C(=O)O1	MIC	0.35

Input line: Look up MIC for this compound: `CCCCCCCCCCCCC[C@@H]1CC(=O)N[C@@H]([C@@H](C)O)C(=O)N[C@H](C)C(=O)N[C@@H](Cc2ccc(O)cc2)C(=O)N[C@@H](C(C)C)C(=O)N2C[C@H](O)C[C@H]2C(=O)N[C@@H]([C@@H](C)O)C(=O)N[C@@H]([C@@H](C)O)C(=O)N2CC[C@H](O)[C@H]2C(=O)N[C@@H]([C@H](O)CC(N)=O)C(=O)NCC(=O)N[C@@H]([C@@H](C)O)C(=O)N[C@@H](CCCNC(=O)[C@@H](CCCN)N(CCN)CCN)C(=O)O1`
Output line: 0.68

====

biological target: Beta-1,3-glucan synthase (Candida albicans, UniProt O13428); experiment: In vitro inhibitory activity against Beta glucan synthase
Sequence (O13428 whole entry): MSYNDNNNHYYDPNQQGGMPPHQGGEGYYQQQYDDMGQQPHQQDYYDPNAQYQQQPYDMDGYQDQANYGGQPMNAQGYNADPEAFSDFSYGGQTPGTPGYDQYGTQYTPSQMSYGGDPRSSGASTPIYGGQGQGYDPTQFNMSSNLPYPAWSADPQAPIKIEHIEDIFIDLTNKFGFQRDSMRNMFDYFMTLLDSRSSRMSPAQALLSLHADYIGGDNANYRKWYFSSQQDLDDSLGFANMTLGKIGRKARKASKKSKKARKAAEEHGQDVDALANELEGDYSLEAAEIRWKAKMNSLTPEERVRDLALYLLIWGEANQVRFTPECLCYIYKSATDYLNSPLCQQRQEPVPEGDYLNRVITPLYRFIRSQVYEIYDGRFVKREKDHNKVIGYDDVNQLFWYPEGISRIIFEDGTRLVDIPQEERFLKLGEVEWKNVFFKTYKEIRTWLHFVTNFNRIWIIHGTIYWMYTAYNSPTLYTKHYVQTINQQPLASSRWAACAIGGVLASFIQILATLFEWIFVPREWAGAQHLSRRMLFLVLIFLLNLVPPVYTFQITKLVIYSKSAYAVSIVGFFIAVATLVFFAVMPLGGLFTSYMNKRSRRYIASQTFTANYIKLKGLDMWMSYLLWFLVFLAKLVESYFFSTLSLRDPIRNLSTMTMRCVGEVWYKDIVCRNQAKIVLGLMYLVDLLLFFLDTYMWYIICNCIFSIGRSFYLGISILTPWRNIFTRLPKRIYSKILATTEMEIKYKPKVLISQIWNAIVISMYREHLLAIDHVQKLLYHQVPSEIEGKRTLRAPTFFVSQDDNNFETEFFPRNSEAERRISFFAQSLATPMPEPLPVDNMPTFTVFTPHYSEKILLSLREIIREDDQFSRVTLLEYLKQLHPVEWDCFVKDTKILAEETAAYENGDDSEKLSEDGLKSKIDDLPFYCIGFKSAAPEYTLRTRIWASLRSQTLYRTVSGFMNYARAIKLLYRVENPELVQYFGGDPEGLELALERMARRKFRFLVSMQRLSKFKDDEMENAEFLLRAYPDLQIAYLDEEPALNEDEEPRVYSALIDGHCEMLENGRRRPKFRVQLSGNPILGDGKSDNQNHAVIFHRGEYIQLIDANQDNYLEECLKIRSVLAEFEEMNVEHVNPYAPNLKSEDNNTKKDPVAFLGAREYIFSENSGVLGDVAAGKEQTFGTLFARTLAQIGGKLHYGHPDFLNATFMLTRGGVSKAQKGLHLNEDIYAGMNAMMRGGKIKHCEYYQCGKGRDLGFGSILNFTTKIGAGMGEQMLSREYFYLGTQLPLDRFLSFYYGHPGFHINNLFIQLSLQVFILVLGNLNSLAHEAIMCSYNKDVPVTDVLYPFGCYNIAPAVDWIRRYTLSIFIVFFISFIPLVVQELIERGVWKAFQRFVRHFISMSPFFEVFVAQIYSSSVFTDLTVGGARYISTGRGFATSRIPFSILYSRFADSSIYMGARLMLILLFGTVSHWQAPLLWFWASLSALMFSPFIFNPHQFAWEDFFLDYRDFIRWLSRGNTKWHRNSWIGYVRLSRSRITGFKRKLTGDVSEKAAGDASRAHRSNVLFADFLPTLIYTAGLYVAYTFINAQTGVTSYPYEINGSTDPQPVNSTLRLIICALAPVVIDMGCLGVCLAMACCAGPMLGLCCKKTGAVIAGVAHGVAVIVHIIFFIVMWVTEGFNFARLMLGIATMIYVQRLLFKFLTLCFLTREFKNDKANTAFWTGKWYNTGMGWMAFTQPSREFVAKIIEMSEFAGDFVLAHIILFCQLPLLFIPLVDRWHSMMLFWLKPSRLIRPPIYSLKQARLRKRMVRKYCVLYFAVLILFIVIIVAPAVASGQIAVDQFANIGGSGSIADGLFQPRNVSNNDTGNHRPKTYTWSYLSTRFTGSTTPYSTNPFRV
Property: IC50; scope: individual compounds

Molecule Smiles	IC50
CCCCCCCCCCCCC[C@@H]1CC(=O)N[C@H]([C@@H](C)O)C(=O)N[C@H](C)C(=O)N[C@@H](Cc2ccc(O)cc2)C(=O)N[C@@H](C(C)C)C(=O)N2C[C@H](O)C[C@H]2C(=O)N[C@H]([C@@H](C)O)C(=O)N[C@@H]([C@@H](C)O)C(=O)N2CC[C@H](O)[C@H]2C(=O)N[C@@H]([C@H](O)CC(N)=O)C(=O)NCC(=O)N[C@H]([C@@H](C)O)C(=O)N[C@@H](CCCN(CCCN)C(=O)[C@H](CCCN)N(CCN)CCN)C(=O)O1	0.28 nM

Shift focus to the following entry.
Input line: Which IC50 value is on record for `CCCCCCCCCCCCC[C@@H]1CC(=O)N[C@H]([C@@H](C)O)C(=O)N[C@H](C)C(=O)N[C@@H](Cc2ccc(O)cc2)C(=O)N[C@@H](C(C)C)C(=O)N2C[C@H](O)C[C@H]2C(=O)N[C@H]([C@@H](C)O)C(=O)N[C@@H]([C@@H](C)O)C(=O)N2CC[C@H](O)[C@H]2C(=O)N[C@@H]([C@H](O)CC(N)=O)C(=O)NCC(=O)N[C@H]([C@@H](C)O)C(=O)N[C@@H](CCCNC(=O)[C@H](N)CCCN)C(=O)O1` ?
Output line: 3.6 nM
